# target_system: protein tyrosine phosphatase 1B (PTP1B) (Homo sapiens)
# Construct: catalytic domain (Met1-Glu298) of PTP1B (ΔPTP1B)
# Sequence (P18031 1-298): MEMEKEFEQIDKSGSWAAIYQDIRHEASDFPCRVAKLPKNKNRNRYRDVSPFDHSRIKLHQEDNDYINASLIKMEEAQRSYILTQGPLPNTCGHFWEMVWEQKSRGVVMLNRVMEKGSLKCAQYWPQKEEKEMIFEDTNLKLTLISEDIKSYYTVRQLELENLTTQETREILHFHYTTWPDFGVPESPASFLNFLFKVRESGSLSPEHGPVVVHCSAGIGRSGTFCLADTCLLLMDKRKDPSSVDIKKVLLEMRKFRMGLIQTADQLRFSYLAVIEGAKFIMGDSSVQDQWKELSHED
# assay_notes: p-NPP phosphatase assay with purified recombinant PTP1B catalytic domain, absorbance at […] nm

{"record_smiles": "O=c1c(O)c(-c2ccc(O)cc2)oc2cc(O)cc(O)c12", "target_system": "protein tyrosine phosphatase 1B (PTP1B) (Homo sapiens)", "unit_text": "µM", "IC50": 279}
